system: Staphylococcus aureus; test: Serial dilution-tube method, MIC; format: cell-based; conditions: Staphylococcus aureus; brain heart infusion broth; read-out: Minimum Inhibitory Concentration
Reported MIC values follow for various molecules
The response must be a number in µg/mL with no trailing unit.

Take a look at these entries with their results.
CCN1CCN(C(=O)N[C@@H](C(=O)NC2C(=O)N3C(C(=O)OCOC(=O)C(C)(C)C)C(C)C(O)C23)c2ccccc2)C(=O)C1=O (stereo partly drawn)    25
CC1C(O)C2C(NC(=O)COc3ccccc3)C(=O)N2C1C(=O)OCOC(=O)C(C)(C)C (stereo not drawn)    25
CCN1CCN(C(=O)N[C@@H](C(=O)NC2C(=O)N3C(C(=O)OCOC(=O)C(C)(C)C)C(C)C(=O)C23)c2ccccc2)C(=O)C1=O (stereo partly drawn)    100

GET /values?readout=MIC&item= Cc1onc(-c2ccccc2)c1C(=O)NC1C(=O)N2C(C(=O)OCOC(=O)C(C)(C)C)C(C)C(O)C12 (stereo not drawn)
100

State the recorded MIC for this entry: CCN1CCN(C(=O)N[C@@H](C(=O)NC2C(=O)N3C(C(=O)O)C(C)C(O)C23)c2ccccc2)C(=O)C1=O (stereo partly drawn)
50

###

tested on: Klebsiella pneumoniae; test: Serial dilution-tube method, MIC; assay type: cell-based; conditions: Klebsiella pneumoniae; brain heart infusion broth; read-out: Minimum Inhibitory Concentration
This section presents compounds with their documented MIC values.

CC(=O)OC1C(C)C(C(=O)OCOC(=O)C(C)(C)C)N2C(=O)C(NC(=O)COc3ccccc3)C12 (stereo not drawn)    > 200 µg/mL
CC1C(O)C2C(NC(=O)COc3ccccc3)C(=O)N2C1C(=O)OCOC(=O)C(C)(C)C (stereo not drawn)    > 200 µg/mL

Moving on to the next compound.
# query: MIC | item COC1(NC(=O)COc2ccccc2)C(=O)N2C(C(=O)OCOC(=O)C(C)(C)C)C(C)C(=O)C21 (stereo not drawn) | system: Klebsiella pneumoniae
> 200 µg/mL

###

system: Serratia marcescens; assay: Serial dilution-tube method, MIC; format: cell-based; settings: Serratia marcescens; brain heart infusion broth; read-out: Minimum Inhibitory Concentration
Below: a set of entries, each annotated with reported MIC.

The following compounds have reported results that may help.
CC1C(O)C2CC(=O)N2C1C(=O)OCOC(=O)C(C)(C)C (stereo not shown) [H H POM CH3 H OH I]    > 200 µg/mL
Cc1onc(-c2ccccc2)c1C(=O)NC1C(=O)N2C(C(=O)OCOC(=O)C(C)(C)C)C(C)C(O)C12 (stereo not shown) [MPI H POM CH3 H OH I]    > 200 µg/mL

I have this compound here, CC(=O)OC1C(C)C(C(=O)OCOC(=O)C(C)(C)C)N2C(=O)C(NC(=O)COc3ccccc3)C12 (stereo not shown) [PMA H POM CH3 H OAc I] , and I need its recorded MIC.
> 200 µg/mL

May I ask what MIC has been recorded for COC1(NC(=O)COc2ccccc2)C(=O)N2C(C(=O)OCOC(=O)C(C)(C)C)C(C)C(O)C21 (stereo not shown) [PMA OMe POM CH3 H OH I] ?
> 200 µg/mL

Query: MIC; subject: CC1=C(C(=O)OCOC(=O)C(C)(C)C)N2C(=O)CC2C1=O (stereo not shown) [H H POM CH3 O II]
> 200 µg/mL

Entry under review: COC1(NC(=O)COc2ccccc2)C(=O)N2C(C(=O)OCOC(=O)C(C)(C)C)C(C)C(=O)C21 (stereo not shown) [PMA OMe POM CH3 O I] . Reported MIC?
> 200 µg/mL

Entry under review: CC1C(=O)C2C(NC(=O)COc3ccccc3)C(=O)N2C1C(=O)OCOC(=O)C(C)(C)C (stereo not shown) [PMA H POM CH3 O I] . Reported MIC?
> 200 µg/mL

Fill in: MIC of CC1C(O)C2C(NC(=O)COc3ccccc3)C(=O)N2C1C(=O)OCOC(=O)C(C)(C)C (stereo not shown) [PMA H POM CH3 H OH I] is ___
> 200 µg/mL

Suppose we examine the compound CCN1CCN(C(=O)N[C@@H](C(=O)NC2C(=O)N3C(C(=O)O)C(C)C(O)C23)c2ccccc2)C(=O)C1=O (stereo partly shown) [EPA H H CH3 H OH I] ; what MIC value has been reported?
> 200 µg/mL

Sample CCN1CCN(C(=O)N[C@@H](C(=O)NC2C(=O)N3C(C(=O)OCOC(=O)C(C)(C)C)C(C)C(=O)C23)c2ccccc2)C(=O)C1=O (stereo partly shown) [EPA H POM CH3 O I] — what was its MIC?
100 µg/mL

Can you share its MIC? I mean this compound: CC1C(=O)C2CC(=O)N2C1C(=O)OCOC(=O)C(C)(C)C (stereo not shown) [H H POM CH3 O I]
> 200 µg/mL

Recorded MIC of CCN1CCN(C(=O)N[C@@H](C(=O)NC2C(=O)N3C(C(=O)OCOC(=O)C(C)(C)C)C(C)C(O)C23)c2ccccc2)C(=O)C1=O (stereo partly shown) [EPA H POM CH3 H OH I] , please.
25 µg/mL

What value of measured MIC is listed for CC(=O)OC1C(C)C(C(=O)O)N2C(=O)CC12 (stereo not shown) [H H H CH3 H OAc I] ?
> 200 µg/mL
